Biological target: ΔCTD_Reg1 (human Regnase-1 amino acids 1 to 546, FLAG tag on the N-terminal side, BirA recognition sequence … (human))
Sequence (Q5D1E8 1-546, stated change not applied): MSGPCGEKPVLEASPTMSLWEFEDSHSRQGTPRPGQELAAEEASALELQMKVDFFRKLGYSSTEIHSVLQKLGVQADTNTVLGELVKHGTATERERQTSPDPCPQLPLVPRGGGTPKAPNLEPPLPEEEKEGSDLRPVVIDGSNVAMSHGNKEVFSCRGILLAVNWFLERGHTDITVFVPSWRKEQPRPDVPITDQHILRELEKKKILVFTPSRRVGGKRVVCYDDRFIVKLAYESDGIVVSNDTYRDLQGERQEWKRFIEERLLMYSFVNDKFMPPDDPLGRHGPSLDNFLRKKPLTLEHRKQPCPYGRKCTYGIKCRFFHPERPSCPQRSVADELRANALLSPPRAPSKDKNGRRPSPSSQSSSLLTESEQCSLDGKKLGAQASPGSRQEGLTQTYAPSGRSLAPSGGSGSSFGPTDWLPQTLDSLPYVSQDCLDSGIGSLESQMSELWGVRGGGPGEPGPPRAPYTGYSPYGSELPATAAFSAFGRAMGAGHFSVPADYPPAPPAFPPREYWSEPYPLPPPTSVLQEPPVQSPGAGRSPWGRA
Experiment: cell-based or functional assay
Positions of bridges follow the written chain, without caps; N, C: chain ends. Non-standard residues stand in square brackets, D forms with d. No end group written: not given here. NMeA = CN[C@@H](C)C(=O)O; dNMeA = CN[C@H](C)C(=O)O
READOUT TYPE: IC50, phosphorylation by IKKβ (µM)

[
  {
    "BINDER": "[NMeA]YIWDFFGDLD (lactam N-11) [PP4]",
    "ENDPOINT VALUE": 8.3
  },
  {
    "BINDER": "[dNMeA]PNSSWFKIWD (lactam N-11) [PP6]",
    "ENDPOINT VALUE": 20.3
  }
]

1. [NMeA]RYAVYQWIYPD (lactam N-12) [PP12]
2. [NMeA]WIWDFWNED (lactam N-10) [PP24]
# query: argmin of IC50, phosphorylation by IKKβ over 1 and 2 Give the label of your selection. 2

a. [NMeA]NSWYKIWGLD (lactam N-11) [PP21]
b. [NMeA]RFGVWSWIYPD (lactam N-12) [PP14]
# query: argmin of IC50, phosphorylation by IKKβ over a and b Give the label of your selection. b
(b: 9 µM, a: 39.3 µM)
